assayed-system: Glycogen synthase kinase-3 beta (Homo sapiens, UniProt P49841, H350L)
Sequence (P49841 whole entry, looked up, stated change not applied): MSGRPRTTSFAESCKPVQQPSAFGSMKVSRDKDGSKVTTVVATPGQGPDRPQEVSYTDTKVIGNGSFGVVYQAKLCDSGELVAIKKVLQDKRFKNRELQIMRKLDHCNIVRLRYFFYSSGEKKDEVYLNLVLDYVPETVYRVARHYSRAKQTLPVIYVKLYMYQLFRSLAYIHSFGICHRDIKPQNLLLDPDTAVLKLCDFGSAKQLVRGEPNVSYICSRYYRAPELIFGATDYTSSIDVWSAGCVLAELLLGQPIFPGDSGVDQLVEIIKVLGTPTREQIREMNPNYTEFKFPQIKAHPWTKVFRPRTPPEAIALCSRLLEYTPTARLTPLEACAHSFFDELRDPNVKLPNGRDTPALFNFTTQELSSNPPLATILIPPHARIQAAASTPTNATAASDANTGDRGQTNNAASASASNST
protocol-summary: Inhibition of human GSK-3beta H350L mutant (2 to end residues) at 10 uM using phospho GS2 peptide as substrate after 40 mins by [gamma-33ATP] radiometric assay
quantity-name: IC50 (nM)
Give bare numbers, in nM.

Solved entries (count: 2):
CC(=O)/N=C1/NC(=O)/C(=C\c2ccc(-c3ccc(C(=O)O)cc3)o2)S1 ... 3720
O=C1NC(=S)N/C1=C/c1ccc(-c2ccc([N+](=O)[O-])cc2)o1 ... 584

Now look at this one.
Fill in the blank: the reported IC50 of `O=C1NC(=S)N/C1=C/c1ccc(-c2ccc(C(=O)O)cc2)o1` is ____.
743
